tested on: HSV1-PAAr; assay: microbe, parasite or virus in culture; type: cell-based, HSV-1; conditions: Human alphaherpesvirus 1
pEC50: −log10 of the molar value.
Measure: pEC50

Provide measured pEC50 value, entry: Nc1nc2c(ncn2COCCO)c(=O)[nH]1 [ACV, 9-(2-hydroxyethoxymethyl)guanine]
< 5.52

* * *

Please consider the recorded TI (TC50/IC50) for HIV-1IIIB in what follows.
Number only, no unit.

ISIS 5677: GGGG TT GGGG TT GGGG TT GGGG, P = S, SEQ ID NO 36 (GGGGTTGGGGTTGGGGTTGGGG; all phosphorothioate, sugars by position not given here) : 146

Provide measured TI (TC50/IC50) value, entry: ISIS 5651: TT GGGG TT GGGG TT GGGG TT GGGG, P = S, SEQ ID NO 35 (TTGGGGTTGGGGTTGGGGTTGGGG; all phosphorothioate, sugars by position not given here)
175

Provide measured TI (TC50/IC50) value, entry: ISIS 5675: TT GGGG TT GGGG TT, P = S, SEQ ID NO 40 (TTGGGGTTGGGGTT; all phosphorothioate, sugars by position not given here)
36

Provide measured TI (TC50/IC50) value, entry: ISIS 5366: TTGGGGTTGGGGTTGGGGTTG GGGG, P = S, SEQ ID NO 33 (TTGGGGTTGGGGTTGGGGTTGGGGG; all phosphorothioate, sugars by position not given here)
220

Provide measured TI (TC50/IC50) value, entry: ISIS 5676: GGGG TT GGGG TT GGGG, P = S, SEQ ID NO 39 (GGGGTTGGGGTTGGGG; all phosphorothioate, sugars by position not given here)
114
